Values were extracted from patent US20190233494A1.

Molecular target: T1, RXFP1 receptor (endogenous, on OVCAR5 cells) (UniProt Q9HBX9 1-757, limits assumed)
T1 sequence (looked up): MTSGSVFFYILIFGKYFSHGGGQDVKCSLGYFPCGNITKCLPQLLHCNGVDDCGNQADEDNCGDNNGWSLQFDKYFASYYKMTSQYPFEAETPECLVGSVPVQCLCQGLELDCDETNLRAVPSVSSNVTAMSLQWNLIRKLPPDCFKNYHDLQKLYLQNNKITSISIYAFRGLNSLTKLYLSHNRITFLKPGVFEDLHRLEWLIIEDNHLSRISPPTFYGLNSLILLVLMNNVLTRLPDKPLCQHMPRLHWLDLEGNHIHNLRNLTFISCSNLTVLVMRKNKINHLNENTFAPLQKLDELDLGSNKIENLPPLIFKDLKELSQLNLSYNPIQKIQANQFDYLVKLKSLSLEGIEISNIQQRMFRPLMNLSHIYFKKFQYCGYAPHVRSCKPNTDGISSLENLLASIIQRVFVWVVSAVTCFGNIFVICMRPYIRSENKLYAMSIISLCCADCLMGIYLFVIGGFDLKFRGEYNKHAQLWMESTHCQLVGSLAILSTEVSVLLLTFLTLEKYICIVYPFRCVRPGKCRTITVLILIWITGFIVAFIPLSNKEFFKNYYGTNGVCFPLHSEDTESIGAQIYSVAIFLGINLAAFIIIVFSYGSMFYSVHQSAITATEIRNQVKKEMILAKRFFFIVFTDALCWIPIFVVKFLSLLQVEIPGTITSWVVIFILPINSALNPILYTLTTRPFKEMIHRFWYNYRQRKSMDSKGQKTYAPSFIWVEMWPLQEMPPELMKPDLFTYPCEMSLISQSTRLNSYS
Experiment: cell-based or functional assay
Starred links: 1 amine or outer side, 2 acyl side, 3 side chain; linkers in the order of their positions; H or OH if unused. Non-standard residues stand in square brackets, D forms with d. Groups on a side chain read outwards from the residue. *: point of attachment. TTDS = 4-[3-[2-[2-(3-aminopropoxy)ethoxy]ethoxy]propylamino]-4-oxo-butanoyl; γGlu = O=C(O)[C@H](CCC(=O)[*:2])N[*:1]; Stearoyl = CCCCCCCCCCCCCCCCCC(=O)*; Palmitoyl = CCCCCCCCCCCCCCCC(=O)*; Aib = CC(C)(N)C(=O)O
readout_kind: EC50 (nM), OVCAR 5 cells (cAMP)

Completed entries (count: 2):
{"columns": ["binder", "unit_spec", "EC50 (nM), OVCAR 5 cells (cAMP)"],
 "data": [
  ["Ac-LEGREKVRAK(Ac)I[Aib][Aib]EGK([TTDS-TTDS-γGlu-γGlu-γGlu-Stearoyl])STFS[Aib]RKK(Ac)-NH2 [peptide of SEQ ID NO: 60]", "nM", 0.15],
  ["Ac-LEGREKVRAK(Ac)I[Aib][Aib]EGK([TTDS-TTDS-TTDS-γGlu-γGlu-γGlu-γGlu-Stearoyl])STWS[Aib]RKK(Ac)-NH2 [peptide of SEQ ID NO: 51]", "nM", 0.1]
]}

a = Ac-LEGREKVRAK(Ac)I[Aib][Aib]EGK([TTDS-TTDS-TTDS-γGlu-γGlu-γGlu-Stearoyl])STFS[Aib]RKK(Ac)-NH2 [peptide of SEQ ID NO: 61]
b = Ac-LEGREKVRAK(Ac)I[Aib][Aib]EGK([TTDS-TTDS-TTDS-γGlu-γGlu-γGlu-Palmitoyl])STFSKRAK(Ac)-NH2 [peptide of SEQ ID NO: 13]
In: Which value of EC50 (nM), OVCAR 5 cells (cAMP) is numerically greater: that of a or that of b ? Refer to your chosen item by its label in the answer.
Out: b
